test: chemical genetic growth profiling, strain panel (AID 1159580);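 note: tested at 20 µM; growth read once vehicle control cultures reached saturation at 30 °C; 1 = growth at the plate median or of vehicle wells; lower values mean less growth of the strain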; conditions: S. cerevisiae deletion strains, growth OD, locus YMR223W, strain ubp8
Screen size: about 5,500 compounds; about 2,000 (36%) were called active. Not shown: some 18% with an inconclusive outcome. Cut-off read from the data, not from the text of the source: active = normalized growth mostly below about 0.91 (no sharp cut-off); inconclusive = no clear call, values can overlap the other calls; inactive = mostly above about 0.92. The list shows a part of the results.
Possible outcomes: TRUE (active), FALSE (inactive)

O=C(Cn1ccnc1[N+](=O)[O-])NCCO    FALSE
CC[C@H](C)C(=O)O[C@H]1C[C@@H](C)C=C2C=C[C@H](C)[C@H](CC[C@@H]3C[C@@H](O)CC(=O)O3)[C@H]21    FALSE
Cc1ccc(C)c(OCCCC(C)(C)C(=O)O)c1    TRUE
O=c1[nH]oc2c1CCNC2    FALSE
Cc1cccc(C(=O)O)c1O    FALSE
CC(=O)Oc1c(C)cccc1C(=O)O    FALSE
CCC(C)(C)C(=O)O[C@H]1C[C@@H](C)C=C2C=C[C@H](C)[C@H](CC[C@@H]3C[C@@H](O)CC(=O)O3)[C@H]21    FALSE
Cc1cccc(Nc2ccccc2C(=O)O)c1C    TRUE

----------
assay: chemical genetic growth profiling, strain panel (AID 1159580);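 note: tested at 20 µM; growth read once vehicle control cultures reached saturation at 30 °C; 1 = growth at the plate median or of vehicle wells; lower values mean less growth of the strain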; settings: S. cerevisiae deletion strains, growth OD, locus YBL061C, strain skt5, stronger effect = lower value
Among all 5,500 compounds or so, about 2,000 (36%) were called active. Inconclusive results (about 18%) are left out. The list shows a part of the results.
Items are presented alongside their recorded normalized growth.
propertyName: normalized growth

CC(C)(C)CC(C)(C)c1ccc(O)c(Cc2ccc(Cl)cc2Cl)c1    1.01 (inactive)
COc1ccc([C@H]2Oc3cc(OC)cc(OC)c3C[C@H]2O)cc1    0.997 (inactive)
CCOC(=O)Nc1nc2ccccc2[nH]1    0.982 (inactive)
COc1cc([C@@H]2c3cc4c(c(O)c3C[C@H]3COC(=O)[C@@H]32)OCO4)cc(OC)c1OC    0.994 (inactive)
COC(=O)C1=CCCN(C)C1    1.02 (inactive)
C=C1C(=O)O[C@@H]2C3O[C@]3(C)CC/C=C(\C)CC[C@@H]12 (some centres not stated)    1.01 (inactive)
Cc1cccc(Nc2ccccc2C(=O)O)c1C    0.924 (inactive)
OC(Cn1cncn1)(Cn1cncn1)c1ccc(F)cc1F    0.995 (inactive)
NS(=O)(=O)c1cc2c(cc1Cl)NC(C(Cl)Cl)NS2(=O)=O (configuration not stated)    0.985 (inactive)
OCc1ccccc1O    1.03 (inactive)
CCNC(=O)CC[C@H](N)C(=O)O    0.993 (inactive)
Oc1ccc(Cl)cc1Cc1cc(Cl)ccc1O    0.0645 (active)

----------
experiment: chemical genetic growth profiling, strain panel (AID 1159580);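 note: tested at 20 µM; growth read once vehicle control cultures reached saturation at 30 °C; 1 = growth at the plate median or of vehicle wells; lower values mean less growth of the strain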; settings: S. cerevisiae deletion strains, growth OD, locus YDR001C, strain nth1, stronger effect = lower value
Among all 5,500 compounds or so, about 2,000 (36%) were called active. Inconclusive results (about 18%) are left out. The list shows a part of the results.
# normalized growth listing for each entry below
propertyName: normalized growth

O=c1cc(-c2ccccc2O)oc2cc(O)ccc12    0.978
CC(C)NC[C@H](O)COc1cccc2ccccc12    0.991
CC(C)NCC(O)COc1cccc2ccccc12 (stereo unspecified)    1.02
C=CCSCC1Nc2cc(Cl)c(S(N)(=O)=O)cc2S(=O)(=O)N1 (stereo unspecified)    1
CC[N+](CC)(CC)CCOc1cccc(OCC[N+](CC)(CC)CC)c1OCC[N+](CC)(CC)CC    1.01
O=C(C1CCCCC1)N1CC(=O)N2CCc3ccccc3C2C1 (stereo unspecified)    1
